From: patent US20190359693A1

# System Under Test: hemagglutinin (HA) of influenza B/Lee/40 (Old) (influenza B virus) (UniProt P03460)
# Sequence (P03460 16-584 limits assumed): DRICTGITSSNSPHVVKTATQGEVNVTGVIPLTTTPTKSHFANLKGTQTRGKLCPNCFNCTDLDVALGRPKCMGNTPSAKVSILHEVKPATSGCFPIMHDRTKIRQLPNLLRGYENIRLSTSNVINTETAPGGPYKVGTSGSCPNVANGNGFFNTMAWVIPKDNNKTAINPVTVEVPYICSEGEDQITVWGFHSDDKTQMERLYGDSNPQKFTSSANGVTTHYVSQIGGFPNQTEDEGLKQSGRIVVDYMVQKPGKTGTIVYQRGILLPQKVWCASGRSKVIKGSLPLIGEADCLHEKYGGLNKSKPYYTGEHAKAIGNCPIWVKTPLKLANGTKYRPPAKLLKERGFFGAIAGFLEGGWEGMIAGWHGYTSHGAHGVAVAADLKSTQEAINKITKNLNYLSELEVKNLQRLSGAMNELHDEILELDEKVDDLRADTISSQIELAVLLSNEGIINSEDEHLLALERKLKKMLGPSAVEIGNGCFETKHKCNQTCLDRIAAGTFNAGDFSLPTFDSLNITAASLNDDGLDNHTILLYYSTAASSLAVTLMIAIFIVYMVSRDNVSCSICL
# Procedure Text: cell-based or functional assay
Below, each of the binders is paired with its reported VNA IC50 value.

| Binder | Censoring Qualifier | VNA IC50, nM |
| --- | --- | --- |
| SD3008 (VHH) VHH: EVQLLESGGGLVQPGGSLRLSCAASGFTLENKAIGWFRQAPGKEREGVSCISKSGSWTYYADSVKGRFTISRDNSKNTVYLQMNSLRPEDTAVYYCATTTAGGGLCWDGTTFSRLASSWGQGTQVTVSS | > | 1000 |
| SD3087 (VHH) VHH: EVQLLESGGGLVQPGGSLRLSCAASGFTLENKAIGWFRQAPGKEREGVLCISKSGSWTYYADSVKGRFTISRDNSKNTVYLQMNSLRPEDTAVYYCATTTAGGGLCWDGTTFSRLASSWGQGTLVTVSS | = | 91 |
